The reported measurements were obtained from patent US20250361240A1.

experimentalDetails: Pharmacokinetic test in cynomolgus monkeys (LC/MS)
Format: in vivo, cynomolgus monkeys (Macaca fascicularis)
runParameters: both sexes, cynomolgus monkey, plasma, 0.5 mg/kg; 0.5mpk oral; read-out: AUC0-24 h
Consider the following compounds and their measured AUC(0-t) readings.
State just the number; it will be interpreted in ng·h/mL.

1) CCC(=O)N[C@@H]1CCOc2c(-c3ccc4c(c3)CCC(=O)N4C)cncc21 : 1960

Let's switch to this compound now.
// lookup AUC(0-t) for CCC(=O)N[C@@H]1CCCc2c(-c3ccc4c(c3)CCC(=O)N4C)cncc21 [Baxdrostat, reference compound]
606

* * *

targetOrSystem: CYP1A2 (Homo sapiens (Human), UniProt P05177)
Sequence (P05177 whole entry): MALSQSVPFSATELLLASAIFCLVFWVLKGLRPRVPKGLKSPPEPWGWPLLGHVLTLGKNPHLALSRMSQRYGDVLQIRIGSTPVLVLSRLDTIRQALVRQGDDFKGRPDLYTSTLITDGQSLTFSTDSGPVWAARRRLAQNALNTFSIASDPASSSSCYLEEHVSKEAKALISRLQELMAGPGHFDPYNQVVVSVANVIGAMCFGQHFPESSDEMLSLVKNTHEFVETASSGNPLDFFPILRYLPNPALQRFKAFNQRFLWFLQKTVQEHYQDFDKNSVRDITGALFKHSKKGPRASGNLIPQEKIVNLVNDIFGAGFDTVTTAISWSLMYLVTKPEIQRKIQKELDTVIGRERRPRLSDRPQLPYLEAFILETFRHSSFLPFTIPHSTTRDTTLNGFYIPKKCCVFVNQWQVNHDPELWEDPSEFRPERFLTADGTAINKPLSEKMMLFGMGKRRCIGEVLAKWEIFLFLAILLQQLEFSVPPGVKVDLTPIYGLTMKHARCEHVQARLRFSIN
experimentalDetails: In vitro inhibitory activity against common CYP450 enzymes: CYP1A2
Type: in vitro ADME
runParameters: microsomes, substrate Phenacetin; read-out: IC50 CYP1A2
Protocol: A working solution of the test compound was prepared in a solvent of dimethyl sulfoxide (DMSO) (starting at a final concentration of 50 μM, 3-fold dilution of 7 concentration points). The corresponding microsomes (CORNING, Cat No.452117) and the corresponding substrate solution were prepared (components were shown in Table 2). The working solution of the test compound and the corresponding microsomes were mixed with the corresponding substrate solution and the HLM working solution. […]
reportedProperty: IC50

Given the entry CCC(=O)N[C@@H]1CCCc2c(-c3ccc4c(c3)CCC(=O)N4C)cncc21 [Baxdrostat, reference compound] , report its measured IC50.
> 50 µM

* * *

Items are presented alongside their recorded IC50.
targetOrSystem: CYP2C19 (Homo sapiens (Human), UniProt P33261)
Sequence (P33261 whole entry): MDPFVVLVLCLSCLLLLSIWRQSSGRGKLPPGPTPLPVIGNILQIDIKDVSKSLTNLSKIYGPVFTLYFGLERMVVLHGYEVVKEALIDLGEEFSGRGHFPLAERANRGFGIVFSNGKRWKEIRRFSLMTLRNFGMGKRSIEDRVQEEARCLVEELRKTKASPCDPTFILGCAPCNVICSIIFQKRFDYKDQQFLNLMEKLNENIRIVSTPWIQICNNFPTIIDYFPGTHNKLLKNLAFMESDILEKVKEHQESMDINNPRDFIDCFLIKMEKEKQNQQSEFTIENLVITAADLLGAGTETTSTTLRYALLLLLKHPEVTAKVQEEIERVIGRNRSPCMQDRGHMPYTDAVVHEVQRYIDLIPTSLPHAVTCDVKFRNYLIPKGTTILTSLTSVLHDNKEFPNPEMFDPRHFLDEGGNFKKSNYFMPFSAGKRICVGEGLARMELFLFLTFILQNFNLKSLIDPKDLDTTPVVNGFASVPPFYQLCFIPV
experimentalDetails: In vitro inhibitory activity against common CYP450 enzymes: CYP2C19
Format: in vitro ADME
runParameters: microsomes, substrate (S)-(+)-Mephenytoin

These solved cases illustrate the format of a correct answer.
1) CCC(=O)N[C@@H]1CCOc2c(-c3ccc4c(c3)CCC(=O)N4C)cncc21 : > 50 µM
2) CCC(=O)N[C@@H]1CCCc2c(-c3ccc4c(c3)CCC(=O)N4C)cncc21 [Baxdrostat, reference compound] : 6.52 µM

Next compound, please.
Please report the recorded IC50 for CCC(=O)N[C@@H]1CCOc2c(-c3cc4c(cc3F)N(C)C(=O)CC4)cncc21 .
> 50 µM

* * *

targetOrSystem: CYP3A-M (Homo sapiens, UniProt P08684)
Sequence (P08684 2-503 limits assumed): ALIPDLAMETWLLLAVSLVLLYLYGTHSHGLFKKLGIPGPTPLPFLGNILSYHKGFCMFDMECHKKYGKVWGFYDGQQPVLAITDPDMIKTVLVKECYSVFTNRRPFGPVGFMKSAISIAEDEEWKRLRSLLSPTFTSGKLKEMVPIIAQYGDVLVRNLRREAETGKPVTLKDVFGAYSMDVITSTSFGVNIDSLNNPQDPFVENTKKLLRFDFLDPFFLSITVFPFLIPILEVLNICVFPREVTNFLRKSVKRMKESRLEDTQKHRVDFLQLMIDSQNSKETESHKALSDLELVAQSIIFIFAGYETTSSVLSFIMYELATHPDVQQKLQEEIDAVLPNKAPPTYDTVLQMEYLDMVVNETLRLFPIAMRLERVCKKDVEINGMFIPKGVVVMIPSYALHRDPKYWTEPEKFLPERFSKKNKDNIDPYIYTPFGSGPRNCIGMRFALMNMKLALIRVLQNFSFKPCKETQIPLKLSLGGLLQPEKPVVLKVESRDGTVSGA
experimentalDetails: In vitro inhibitory activity against common CYP450 enzymes: CYP3A (midazolam)
Format: in vitro ADME
runParameters: microsomes, substrate Midazolam
Procedure: A working solution of the test compound was prepared in a solvent of dimethyl sulfoxide (DMSO) (starting at a final concentration of 50 μM, 3-fold dilution of 7 concentration points). The corresponding microsomes (CORNING, Cat No.452117) and the corresponding substrate solution were prepared (components were shown in Table 2). The working solution of the test compound and the corresponding microsomes were mixed with the corresponding substrate solution and the HLM working solution. […]
reportedProperty: IC50

Give the reported IC50 for CCC(=O)N[C@@H]1CCOc2c(-c3ccc4c(c3)CCC(=O)N4C)cncc21 (system: CYP3A-M (Homo sapiens, UniProt P08684)).
> 50 µM

* * *

experimentalDetails: Pharmacokinetic test in cynomolgus monkeys (LC/MS)
Format: in vivo, cynomolgus monkeys (Macaca fascicularis)
runParameters: both sexes, cynomolgus monkey, plasma, 0.05 mg/kg; 0.05mpk oral
# reported Tmax; entries follow
Answer with a number only, understood to be in h.

1) CCC(=O)N[C@@H]1CCOc2c(-c3cc4c(cc3F)N(C)C(=O)CC4)cncc21 : 2

Name the reported Tmax value associated with the compound CCC(=O)N[C@@H]1CCCc2c(-c3ccc4c(c3)CCC(=O)N4C)cncc21 [Baxdrostat, reference compound]
2

Requested field: Tmax. Item: [2H][C@@]1(NC(=O)CC)CCOc2c(-c3ccc4c(c3)CCC(=O)N4C)cncc21
2
